Measured % Inhibition, listed per entry.
- Tested on: P. falciparum stage V gametocytes
- Set-up: BacTiter-Glo ATP luminescence viability of purified stage V gametocytes in 384-well plates, per cent inhibition versus DMSO
- conditions_used: 48 h, 5 µM; inhibitor
Among all 13,000 compounds or so, about 3,200 (25%) showed an effect of 50% or more. The list shows a part of the results.
readout_kind: % Inhibition (%)

> print(dat)
                                    compound  result
 1  Cc1cccc2[nH]c(-c3ccc(-c4cccc(CN5CCCC5CN)c4)cc3)nc12 (centres unmarked) [TCMDC-132993]   21.61
 2  CCn1c(Sc2ccc([N+](=O)[O-])c(C#N)c2)nnc1-c1ccc(Cl)cc1 [TCMDC-135235]   96.27
 3  CC(C)C[C@@H](/C=N/NC(N)=O)NC(=O)[C@H](CC(C)C)NC(=O)[C@H](CC(C)C)NC(=O)OCc1ccccc1 [TCMDC-139049]  -49.58
 4  O=C(/C=C/c1ccc(F)c(Br)c1)NCCCCCN1CCC(c2c[nH]c3ccccc23)CC1 [TCMDC-139235]  -23.07
 5  Cc1ccc(Cn2nc(Cl)c(N3CCNCC3)cc2=O)cc1NC(=O)Nc1ccc(-c2ccccc2)cc1 [TCMDC-141698]   114.4
 6  Cc1cccc2[nH]c(-c3ccc(-c4ccc(CN5CCN(CCN6CCOCC6)CC5)cc4)cc3)nc12 [TCMDC-133931]    6.93
 7  COCCn1c(Sc2ccc(C#N)c([N+](=O)[O-])c2)nnc1-c1ccc(N(C)C)cc1 [TCMDC-135613]   43.33
 8  O=C(Nc1ccc(-c2ccccc2)cc1)Nc1cccc(Cn2nc(Cl)c(N3CCNCC3)cc2=O)c1 [TCMDC-141694]  -35.56
 9  Cc1cccc2[nH]c(-c3ccc(-c4ccc(CN5CCN(CCO)CC5)cc4)cc3)nc12 [TCMDC-133033]    4.83
10  CCCn1c(Sc2ccc(C#N)c([N+](=O)[O-])c2)nnc1-c1ccc(Cl)cc1 [TCMDC-135581]   50.77
11  Cc1cccc2[nH]c(-c3ccc(-c4ccc(CN5CCN(c6ccncc6)CC5)cc4)cc3)nc12 [TCMDC-132919]    17.4
12  CCNc1cc(C(=O)N[C@@H](Cc2ccccc2)[C@H](O)CNC2CCC(C)(C)CC2)cc(N2CCCCS2(=O)=O)c1 [TCMDC-135108]   43.04
13  CC1(C)CNCc2cc(NC(=O)/C=C/c3ccc(Cl)cc3)ccc21 [TCMDC-141909]   92.59
14  CCCCn1c(Sc2ccc(C#N)c([N+](=O)[O-])c2)nnc1-c1ccc(OC)cc1 [TCMDC-135583]   19.44
15  Cc1nc2ccccc2n1C1CC2CCC(C1)N2Cc1nccn1-c1ccccc1 (centres unmarked) [TCMDC-134167]  -3.664
16  Cc1cccc2[nH]c(-c3ccc(-c4ccc(CN5CCCC5CN)cc4)cc3)nc12 (centres unmarked) [TCMDC-132999]   66.58
17  CN1CCN(Cc2cc3cc(NC(=O)/C=C/c4ccc(Cl)cc4)ccc3s2)CC1 [TCMDC-135631]  -73.77
18  Cc1cccc2[nH]c(-c3ccc(-c4ccc(CN5CCCC(N)C5)cc4)cc3)nc12 (centres unmarked) [TCMDC-133863]    93.4
19  CCn1c(Sc2ccc([N+](=O)[O-])c(C#N)c2)nnc1-c1cccc(Cl)c1 [TCMDC-135234]   107.6
20  CC1CN=C(c2cccc(NC(=O)Nc3cccc(C4=NCC(C)N4)c3)c2)N1 (centres unmarked) [TCMDC-137194]   7.217
21  Cc1cccc2[nH]c(-c3ccc(-c4ccc(CN5CCN(C6CCN(C)CC6)CC5)cc4)cc3)nc12 [TCMDC-133865]   83.09
22  Cc1cccc2[nH]c(-c3cccc(-c4ccc(CN5CCCC5CN)cc4)c3)nc12 (centres unmarked) [TCMDC-132991]   36.61
23  O=C(NC1CC1)c1cnc(N2CCC(c3ccccc3)CC2)c(Cl)c1 [TCMDC-134605]   18.88
24  CCc1ccccc1N1CCN(CCCC(=O)c2ccc(NC(=O)c3cc(Cl)cc(Cl)c3)cc2)CC1 [TCMDC-138229]  -19.19
25  CCCn1c(Sc2ccc(C#N)c([N+](=O)[O-])c2)nnc1-c1ccc(N(C)C)cc1 [TCMDC-135610]   57.06
26  CCCCCCn1c(Sc2ccc(C#N)c([N+](=O)[O-])c2)nnc1-c1ccc(Cl)cc1 [TCMDC-135599]   28.19
27  COc1ccc(/C=C/C(=O)NCCCCCN2CCC(c3c[nH]c4ccccc34)CC2)cc1O [TCMDC-139754]  -52.52
28  Cc1cccc2[nH]c(-c3ccc(-c4cccc(CN5CCC(C(N)=O)CC5)c4)cc3)nc12 [TCMDC-132694]  -8.961
29  O=C(/C=C/c1ccc(I)cc1)NCCCCCN1CCC(c2c[nH]c3ccccc23)CC1 [TCMDC-139198]   49.23
30  CCn1c(Sc2ccc(C#N)c([N+](=O)[O-])c2)nnc1-c1cccc(Cl)c1 [TCMDC-135592]   10.47
31  Cc1ccc(/C=C/C(=O)NCCCCCN2CCC(c3c[nH]c4ccccc34)CC2)cc1 [TCMDC-139236]   53.65
32  O=C(/C=C/c1ccc(Cl)cc1)Nc1ccc2nc(CN3CCCC3)ccc2c1 [TCMDC-135629]  -22.56
